- MEASURED_TARGET: Lysine-specific demethylase 4A (Homo sapiens)
- ASSAY_PROTOCOL: qHTS Assay for Inhibitors of JMJD2A-Tudor Domain; further: nearly all actives have a fitted effect of over 50% in size
- EXPERIMENTAL_PARAMETERS: AlphaScreen JMJD2A-Tudor / H3K4me3 peptide binding; series mostly up to 114 µM
- Excerpt: JMJD2A is a jumonji-domain-containing lysine demethylase that uses Fe(II) together with 2-OG to effect oxidative demethylation of histones. Methylation is one of many […] modification that affect epigenetic transcription. […] A quantitative high throughput AlphaScreen has been developed to identify small molecule inhibitors based on a protocol published by NCGC and SGC [4]. […] [2] Yasgar, et al. Compound Management for Quantitative High-Throughput Screening. […]
Screen size: about 390,000 compounds; about 17,000 (4.4%) were called active. Another 8% or so got no clear call; they are omitted. The call rests on the fitted dose curve; in most records, active means well fitted inhibition curve with a large enough effect; inconclusive means small, poorly fitted or top-dose-only effect; inactive means no such curve, though single readings can be large or run the other way. This excerpt belongs to a sample that is enriched for actives.
Tick one outcome: True = active, False = inactive

Worked set:
COMPOUND: CCOc1ccc(N(CC)S(=O)(=O)N2CCCC(C(=O)NCc3ccc(Cl)cc3)C2)cc1 (stereo not given)
ASSIGNED_CATEGORY: False

COMPOUND: Cc1ccc(COc2ccc(/C=N/NC(=O)CN3CCCCC3)cc2)cc1
ASSIGNED_CATEGORY: False

COMPOUND: Cc1nc2nc(SCC(=O)N(Cc3ccccc3)C(C)C)nn2c(C)c1Cc1ccccc1Cl
ASSIGNED_CATEGORY: False

Challenge: Recorded test call requested for CCC(C)(C)NC(=O)C(c1ccc(OC)cc1)N(C(=O)CCC(=O)Nc1cc(C)on1)c1ccc(OC)cc1OC (stereo not given)
Response given: False

Challenge: Would you mind doing O=C(CN1CCN(C/C=C/c2ccccc2)CC1)Nc1ccc(F)cc1F as well?
Response given: False

Challenge: Would you mind doing O=c1ccc2c(-c3ccccc3S(=O)(=O)O)c3ccc(O)c(O)c3oc-2c1O as well?
Response given: True

Challenge: Would you mind doing Cc1nn(CC(=O)O)c(=O)c2cc3cc(F)ccc3n12 as well?
Response given: False

Challenge: Would you mind doing O=C(CN1CCSCC1)N/N=C/c1ccc(F)cc1 as well?
Response given: True

Challenge: Would you mind doing O=C(C1=C(O)C(=O)N(c2ncccn2)C1c1cccs1)c1ccco1 (stereo not given) as well?
Response given: True

Challenge: Would you mind doing O=C(c1ccco1)N(Cc1cccs1)c1ccc(O)cc1 as well?
Response given: False

====

- MEASURED_TARGET: Lysine-specific demethylase 4A (Homo sapiens)
- ASSAY_PROTOCOL: qHTS Assay for Inhibitors of JMJD2A-Tudor Domain; further: nearly all actives have a fitted effect of over 50% in size
- EXPERIMENTAL_PARAMETERS: AlphaScreen JMJD2A-Tudor / H3K4me3 peptide binding; series mostly up to 114 µM
In all, about 390,000 compounds went through this assay and about 17,000 (4.4%) were called active. Roughly 8% stayed inconclusive and do not appear here. Calls follow the shape of the dose curve; as a rule, active = well fitted inhibition curve with a large enough effect; inconclusive = small, poorly fitted or top-dose-only effect; inactive = no such curve, though single readings can be large or run the other way. The sample holds actives, similar compounds and a random draw of the others, so the mix is not that of the screen.
Tick one outcome: Yes for active, No for inactive

Worked set:
MOLECULE: OC(COc1ccccc1)CN1CCN(c2cccc(Cl)c2)CC1 (configuration not stated)
MEASURED_TARGET: Lysine-specific demethylase 4A (Homo sapiens)
ASSIGNED_CATEGORY: No

MOLECULE: O=C(N/N=C/c1ccc(Cl)cc1)c1nc2ccc([N+](=O)[O-])cc2c(=O)[nH]1
MEASURED_TARGET: Lysine-specific demethylase 4A (Homo sapiens)
ASSIGNED_CATEGORY: Yes

MOLECULE: O=C(Nc1nnc(C2=COCCO2)o1)c1ccc([N+](=O)[O-])s1
MEASURED_TARGET: Lysine-specific demethylase 4A (Homo sapiens)
ASSIGNED_CATEGORY: Yes

MOLECULE: Cc1ccccc1Cn1nc(C)c(NC(=O)c2cc(-c3ccc(F)cc3)on2)c1C
MEASURED_TARGET: Lysine-specific demethylase 4A (Homo sapiens)
ASSIGNED_CATEGORY: No

MOLECULE: C/C(=N\Nc1ccc(Cl)nn1)c1ccccc1O
MEASURED_TARGET: Lysine-specific demethylase 4A (Homo sapiens)
ASSIGNED_CATEGORY: No

MOLECULE: Cc1ccc(N2CC(NC(=O)Cc3cccs3)CC2=O)cc1 (configuration not stated)
MEASURED_TARGET: Lysine-specific demethylase 4A (Homo sapiens)
ASSIGNED_CATEGORY: No

MOLECULE: N#Cc1cc([N+](=O)[O-])ccc1Oc1cccc(/C=N/NC(=O)c2ccc(Cl)cc2)c1
MEASURED_TARGET: Lysine-specific demethylase 4A (Homo sapiens)
ASSIGNED_CATEGORY: No

MOLECULE: CN1CCN(CC(O)COCc2ccc3c(c2)OCO3)CC1 (configuration not stated)
MEASURED_TARGET: Lysine-specific demethylase 4A (Homo sapiens)
ASSIGNED_CATEGORY: No

MOLECULE: CSc1ccccc1-c1nnc(NC(=O)c2ccc3c(c2)OCCO3)o1
MEASURED_TARGET: Lysine-specific demethylase 4A (Homo sapiens)
ASSIGNED_CATEGORY: No

MOLECULE: Cc1ccc(C)c(NC(=S)NNC(=S)Nc2ccc(C(C)C)cc2)c1
MEASURED_TARGET: Lysine-specific demethylase 4A (Homo sapiens)
ASSIGNED_CATEGORY: Yes

Challenge: Recorded test call requested for Cc1ccc2nc(-c3ccc(O)cc3)c(Nc3ccc4c(c3)OCO4)n2c1
Response given: No

Challenge: Would you mind doing N#C/C(=C/c1ccc(N2CCOCC2)o1)C(=O)N1CCOCC1 as well?
Response given: No

Challenge: Would you mind doing Cc1ccc2nc(/C(C#N)=C/c3ccc(-c4ccc(C(=O)OC(C)C)cc4)o3)[nH]c2c1 as well?
Response given: No

Challenge: Would you mind doing N#C/C(=C\C1=C(N2CCOCC2)C(=C\c2ccccc2)/CC1)C(=O)Nc1ccccc1F as well?
Response given: Yes

Challenge: Would you mind doing O=C(CSc1nccn1Cc1ccc(F)cc1)NCc1ccccc1 as well?
Response given: No

Challenge: Would you mind doing O=C(CSc1nccn1-c1ccc(F)cc1)Nc1cccc2ccccc12 as well?
Response given: Yes

Challenge: Would you mind doing CCCNC(=O)C1CCC(Cn2c(=O)c3sccc3n(Cc3ccccc3F)c2=O)CC1 (configuration not stated) as well?
Response given: No

Challenge: Would you mind doing C=C1CCN(Cc2ccc(OC)cc2)S(=O)(=O)c2ccccc21 as well?
Response given: No

Challenge: Would you mind doing O=C(CC1SC(N2CCOCC2)=NC1=O)Nc1ccccc1F (configuration not stated) as well?
Response given: No

Challenge: Would you mind doing COc1cc(NC(=O)COC(=O)c2ccc([N+](=O)[O-])s2)cc(OC)c1OC as well?
Response given: No

Challenge: Would you mind doing Cc1ccc(C)c(NC(=S)NCC(c2cccnc2)N2CCOCC2)c1 (configuration not stated) as well?
Response given: No

Challenge: Would you mind doing O=C(N/N=C/c1cccc(OC(=O)c2ccc([N+](=O)[O-])cc2)c1)c1cccnc1 as well?
Response given: No

====

- MEASURED_TARGET: Lysine-specific demethylase 4A (Homo sapiens)
- ASSAY_PROTOCOL: qHTS Assay for Inhibitors of JMJD2A-Tudor Domain; further: nearly all actives have a fitted effect of over 50% in size
- EXPERIMENTAL_PARAMETERS: AlphaScreen JMJD2A-Tudor / H3K4me3 peptide binding; series mostly up to 114 µM
Out of some 390,000 compounds screened, about 17,000 (4.4%) were called active. About 8% were inconclusive and are not listed. Calls come from the whole dose curve; as a rule, active = well fitted inhibition curve with a large enough effect; inconclusive = small, poorly fitted or top-dose-only effect; inactive = no such curve, though single readings can be large or run the other way. The sample holds actives, similar compounds and a random draw of the others, so the mix is not that of the screen.
Tick one outcome: active, inactive

Worked set:
MOLECULE: COc1cccc(C(=O)Nc2ccc3oc(-c4ccc5ccccc5c4)nc3c2)c1
ASSIGNED_CATEGORY: inactive

MOLECULE: COc1ccc(-c2onc(C)c2C)cc1S(=O)(=O)NCc1cccs1
ASSIGNED_CATEGORY: inactive

MOLECULE: Cc1c(Cl)c([N+](=O)[O-])nn1Cc1ccc(C(=O)N/N=C\c2cc(Cl)ccc2O)o1
ASSIGNED_CATEGORY: inactive

Challenge: Recorded test call requested for Cc1cc(C(=O)N/N=C/c2cc([N+](=O)[O-])cc(C)c2O)n[nH]1
Response given: active

Challenge: Would you mind doing COc1ccc(Cc2nnc(SC)[nH]c2=O)cc1 as well?
Response given: inactive

Challenge: Would you mind doing CC(C)CC(=O)N1CCC(O)(CS(=O)(=O)Cc2ccccc2)CC1 as well?
Response given: inactive

====

- MEASURED_TARGET: Lysine-specific demethylase 4A (Homo sapiens) (UniProt O75164)
- Sequence (O75164 whole entry, looked up, the tested form may be a part): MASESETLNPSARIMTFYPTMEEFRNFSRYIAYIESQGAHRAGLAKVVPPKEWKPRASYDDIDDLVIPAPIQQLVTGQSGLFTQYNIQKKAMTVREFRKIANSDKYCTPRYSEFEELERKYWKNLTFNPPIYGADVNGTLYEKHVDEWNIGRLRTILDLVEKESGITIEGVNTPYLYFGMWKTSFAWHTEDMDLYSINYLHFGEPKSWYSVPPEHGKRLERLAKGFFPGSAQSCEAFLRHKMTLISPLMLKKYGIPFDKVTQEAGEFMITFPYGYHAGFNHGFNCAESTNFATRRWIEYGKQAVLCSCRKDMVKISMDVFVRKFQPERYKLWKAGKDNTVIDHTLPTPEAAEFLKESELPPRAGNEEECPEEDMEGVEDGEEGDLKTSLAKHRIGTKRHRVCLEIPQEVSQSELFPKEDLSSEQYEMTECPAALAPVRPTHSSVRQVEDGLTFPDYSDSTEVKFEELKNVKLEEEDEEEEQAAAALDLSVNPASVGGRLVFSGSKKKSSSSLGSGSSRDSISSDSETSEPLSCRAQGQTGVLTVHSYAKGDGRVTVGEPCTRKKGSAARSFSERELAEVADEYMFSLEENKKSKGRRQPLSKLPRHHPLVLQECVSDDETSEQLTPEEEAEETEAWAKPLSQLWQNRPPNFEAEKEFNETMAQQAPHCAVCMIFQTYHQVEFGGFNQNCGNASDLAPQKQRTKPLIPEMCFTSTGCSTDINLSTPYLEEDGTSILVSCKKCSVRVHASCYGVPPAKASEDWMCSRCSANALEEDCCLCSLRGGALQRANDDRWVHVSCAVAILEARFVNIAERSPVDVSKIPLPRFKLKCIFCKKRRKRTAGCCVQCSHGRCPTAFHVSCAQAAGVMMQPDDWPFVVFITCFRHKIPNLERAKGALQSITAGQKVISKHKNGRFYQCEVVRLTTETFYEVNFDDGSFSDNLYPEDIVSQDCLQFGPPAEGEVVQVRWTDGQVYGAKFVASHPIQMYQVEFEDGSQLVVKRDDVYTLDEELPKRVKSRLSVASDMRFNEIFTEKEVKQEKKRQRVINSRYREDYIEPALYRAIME
- ASSAY_PROTOCOL: qHTS Assay for Inhibitors of JMJD2A-Tudor Domain; further: nearly all actives have a fitted effect of over 50% in size
- EXPERIMENTAL_PARAMETERS: AlphaScreen JMJD2A-Tudor / H3K4me3 peptide binding; series mostly up to 114 µM
In all, about 390,000 compounds went through this assay and about 17,000 (4.4%) were called active. Inconclusive results (about 8%) are left out. Calls come from the whole dose curve; as a rule, active = well fitted inhibition curve with a large enough effect; inconclusive = small, poorly fitted or top-dose-only effect; inactive = no such curve, though single readings can be large or run the other way. For the sample, actives were picked, then their nearest neighbours and some compounds at random.
Tick one outcome: 1.0 = active, 0.0 = inactive

Worked set:
MOLECULE: CCN(CC)C(=O)CCC(=O)Nc1ccc(C(=O)OC)cc1
MEASURED_TARGET: Lysine-specific demethylase 4A (Homo sapiens) (UniProt O75164)
ASSIGNED_CATEGORY: 0.0
--
MOLECULE: O=c1cc(CCl)nc2scc(-c3ccccc3)n12
MEASURED_TARGET: Lysine-specific demethylase 4A (Homo sapiens) (UniProt O75164)
ASSIGNED_CATEGORY: 0.0
--
MOLECULE: CCC1CCCCN1Cc1c(O)ccc2c(=O)c(Oc3ccccc3Cl)c(C(F)(F)F)oc12 (centres undefined)
MEASURED_TARGET: Lysine-specific demethylase 4A (Homo sapiens) (UniProt O75164)
ASSIGNED_CATEGORY: 0.0
--
MOLECULE: NC(=O)c1ccc(CN2CCC(Cc3ccccc3)CC2)cc1
MEASURED_TARGET: Lysine-specific demethylase 4A (Homo sapiens) (UniProt O75164)
ASSIGNED_CATEGORY: 0.0
--
MOLECULE: COc1ccc(N(CC(=O)NCC2CCCO2)C(=O)CCC(=O)Nc2nccs2)c(OC)c1 (centres undefined)
MEASURED_TARGET: Lysine-specific demethylase 4A (Homo sapiens) (UniProt O75164)
ASSIGNED_CATEGORY: 0.0

Challenge: Recorded test call requested for CCCCN(CC)CCCNC(=O)c1nn(C)c2c1CSc1ccccc1-2
Response given: 0.0

Challenge: Would you mind doing CCN1C(=O)c2ccccc2Sc2ccc(NC(=O)Cc3ccc(OC)cc3)cc21 as well?
Response given: 0.0

Challenge: Would you mind doing OC(COc1ccc(CN2CCSCC2)cc1)CN1CCCCC1 (centres undefined) as well?
Response given: 0.0

Challenge: Would you mind doing Nc1ccc(Nc2ccccc2)cc1 as well?
Response given: 1.0

Challenge: Would you mind doing CC(CN1CCCCC1)OC(=O)c1ccccc1Cl (centres undefined) as well?
Response given: 0.0

Challenge: Would you mind doing Cc1cc(NC(=O)CCC(=O)N(CC(=O)NCC2CCCO2)c2ccccc2C)no1 (centres undefined) as well?
Response given: 0.0

Challenge: Would you mind doing CN(C)CCCn1c(=O)n(Cc2ccccc2)c(=O)c2c3c(sc21)CCCCC3 as well?
Response given: 0.0

Challenge: Would you mind doing COc1ccc(OC)c(NC(=O)CCN2CCC(C)CC2)c1 as well?
Response given: 0.0

Challenge: Would you mind doing CCN1/C(=C/C(=S)Nc2ccccc2)Sc2ccccc21 as well?
Response given: 1.0

Challenge: Would you mind doing CN(C)CCCn1c(-c2ccc(Cl)cc2)csc1=Nc1ccccc1 as well?
Response given: 1.0

Challenge: Would you mind doing COc1ccccc1-n1cn[nH]c1=S as well?
Response given: 1.0

Challenge: Would you mind doing CCc1ccccc1N(C)C(=O)C1CCCN(c2ncnc3onc(-c4ccc(F)cc4)c23)C1 (centres undefined) as well?
Response given: 0.0

Challenge: Would you mind doing O=C(CSCc1cnn(-c2ccccc2)c1-n1cccc1)NCc1ccc(Cl)cc1 as well?
Response given: 0.0

Challenge: Would you mind doing Cc1cc(NC(=O)CCC(=O)N(CC(=O)NCC2CCCO2)c2ccccc2)no1 (centres undefined) as well?
Response given: 0.0

Challenge: Would you mind doing O=C(OC12CC3CC(CC(C3)C1)C2)c1ccc(NCc2cc(O)ccc2O)cc1 as well?
Response given: 1.0

Challenge: Would you mind doing COc1ccccc1C(=O)Nc1ccc(Nc2ccccc2)cc1 as well?
Response given: 0.0

Challenge: Would you mind doing CCc1ccc(CN(Cc2ccco2)C(=O)COc2ccc(Cl)c(C)c2)cc1 as well?
Response given: 0.0

Challenge: Would you mind doing CC(OC(=O)c1ccc(Cl)cc1O)C(=O)NCCC1=CCCCC1 (centres undefined) as well?
Response given: 0.0

Challenge: Would you mind doing O=c1cc(CO)oc(CN2CCC(Cc3ccccc3)CC2)c1O as well?
Response given: 0.0

Challenge: Would you mind doing Brc1ccccc1CN1CCC(Cc2ccccc2)CC1 as well?
Response given: 1.0
